Biological target: Gsx2 167-305 (Mus musculus, UniProt P31316 167-305)
Sequence (P31316 167-305): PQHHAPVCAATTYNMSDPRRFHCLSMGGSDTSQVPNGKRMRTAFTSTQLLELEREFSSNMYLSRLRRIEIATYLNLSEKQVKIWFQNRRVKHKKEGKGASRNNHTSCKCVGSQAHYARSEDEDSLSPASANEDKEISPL
Experiment: ITC; K 0.7 ± 0.2 x10^7 M-1; N 0.94; ITC: 50 mM sodium phosphate pH 6.5, 150 mM NaCl, 20 C; EMSA: 35 nM probe, 15 min room temperature, buffer as in cited ref 31
Conditions: protein: recombinant; tags: N-terminal His-tag, cleaved with PreScission; chain copies: 2; 5' overhang 1 nt on each strand
pKd: −log10 of the molar value.
PARAMETER_MEASURED: pKd

BINDER: TAATGG 15-mer (Common Q50 site) (dsDNA) DNA 1: TGAGCTAATGGAAGC DNA 2: AGCTTCCATTAGCTC
PARAMETER_MEASURED: pKd
VALUE_MEASURED: 6.84
